- studyTarget: human V1a receptor (Homo sapiens)
- Sequence (P37288 whole entry): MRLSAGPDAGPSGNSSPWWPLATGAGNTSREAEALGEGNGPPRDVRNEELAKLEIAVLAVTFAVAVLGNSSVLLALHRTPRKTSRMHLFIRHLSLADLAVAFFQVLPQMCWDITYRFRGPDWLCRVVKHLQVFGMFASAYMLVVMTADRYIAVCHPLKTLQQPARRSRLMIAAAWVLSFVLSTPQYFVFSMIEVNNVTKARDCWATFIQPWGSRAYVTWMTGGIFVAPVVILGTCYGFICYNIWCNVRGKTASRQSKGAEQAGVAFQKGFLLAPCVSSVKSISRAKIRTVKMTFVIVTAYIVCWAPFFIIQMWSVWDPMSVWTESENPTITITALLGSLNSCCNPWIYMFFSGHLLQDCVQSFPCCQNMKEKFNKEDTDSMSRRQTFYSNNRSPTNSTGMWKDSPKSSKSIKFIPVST
- experimentalProtocol: Cellular in vitro assay for determining vasopressin receptor activity, V1a receptor cell line (CHO, aequorin luminescence)
- particulars: CHO cell line transfected with human V1a receptor; [Arg]-vasopressin at EC50 concentration; read-out: IC50 hV1a
observable: IC50 (nM)

{"columns": ["molecule", "measurement"],
 "data": [
  ["O=C(c1cccc(Cl)c1-n1cnc(Cn2nc(-c3ccc(Cl)cc3)n(C[C@H](O)C(F)(F)F)c2=O)n1)N1CC2(COC2)C1", 365],
  ["O=C(CC1CCCO1)Nc1ncccc1-n1cnc(Cn2nc(-c3ccc(Cl)cc3)n(C[C@H](O)C(F)(F)F)c2=O)n1 (stereo partly drawn)", 32],
  ["O=C(O)CCNc1ccncc1-n1cnc(Cn2nc(-c3ccc(Cl)cc3)n(C[C@H](O)C(F)(F)F)c2=O)n1", 4350],
  ["Cn1nccc1C(=O)Nc1ncccc1-n1cnc(Cn2nc(-c3ccc(Cl)cc3)n(C[C@H](O)C(F)(F)F)c2=O)n1", 2.35]
]}

(A) CC(C(=O)Nc1ncccc1-n1cnc(Cn2nc(-c3ccc(Cl)cc3)n(C[C@H](O)C(F)(F)F)c2=O)n1)n1ccnc1 (stereo partly drawn)
(B) O=C(Nc1cccnc1-n1cnc(Cn2nc(-c3ccc(Cl)cc3)n(C[C@H](O)C(F)(F)F)c2=O)n1)C1(C(F)(F)F)CC1
Request: Of the two listed items, which has the higher IC50? First: A Second: B Could you answer with the label of the item you picked?
Result: A
(A: 12.5 nM, B: 7 nM)

---

- studyTarget: human V1a receptor (Homo sapiens)
- experimentalProtocol: Cellular in vitro assay for determining vasopressin receptor activity, V1a receptor cell line (CHO, aequorin luminescence)
- particulars: CHO cell line transfected with human V1a receptor; [Arg]-vasopressin at EC50 concentration; read-out: IC50 hV1a
- Procedure: B-1. Cellular In Vitro Assay for Determining Vasopressin Receptor Activity The identification of agonists and antagonists of the V1a and V2 vasopressin receptors from humans, rats and dogs as well as the quantification of the activity of the compounds of the invention is carried out using recombinant cell lines. […] The bioluminescence of the cell lines is detected using a suitable luminometer [Milligan G, Marshall F, Rees S, Trends in Pharmacological Sciences 17, 235-237 (1996)]. […]
pIC50: −log10 of the molar value.
observable: pIC50

Sample records with pIC50:
{"columns": ["molecule", "pIC50"],
 "data": [
  ["O=C(Nc1ccc(F)cc1F)c1ccccc1-n1cnc(Cn2nc(-c3ccc(Cl)cc3)n(C[C@H](O)C(F)(F)F)c2=O)n1", 8.67],
  ["CC(O)CNC(=O)c1ccccc1-n1cnc(Cn2nc(-c3ccc(Cl)cc3)n(C[C@H](O)C(F)(F)F)c2=O)n1 (mixture of isomers)", 8.53],
  ["O=C(NC1(C(F)(F)F)CC1)c1ncccc1-n1cnc(Cn2nc(-c3ccc(Cl)cc3)n(C[C@H](O)C(F)(F)F)c2=O)n1", 7.53]
]}

(I) O=C(NC1CC1(F)F)c1cccc(C(F)(F)F)c1-n1cnc(Cn2nc(-c3ccc(Cl)cc3)n(C[C@H](O)C(F)(F)F)c2=O)n1 (mixture of isomers)
(II) NC(=O)[C@@H]1CC(F)(F)CN1C(=O)c1ncccc1-n1cnc(Cn2nc(-c3ccc(Cl)cc3)n(C[C@@H](O)C(F)(F)F)c2=O)n1
Request: Of the two listed items, which has the higher pIC50? First: I Second: II Could you answer with the label of the item you picked?
Result: I

Data credit: patent US11173151B2
